Taken from patent US20060276464A1.

- target.or.system: SFRP-1 (Homo sapiens)
- measurement.description: Cell-based assay for in vitro measurement of SFRP-1/SARP2 antagonist activity (U2OS cells co-transfected with 16x TCF-tk-Luciferase reporter, Wnt and hSFRP-1)
- condition.notes: U2OS, read-out: Fold Induction with SFRP-1, Conc 15 μM; with SFRP-1; fold induction over SFRP-1 control, single dose
property: fold induction at 15 µM

Cc1ccc(S(=O)(=O)c2ccc(F)cc2)cc1S(=O)(=O)NCCn1ccnc1	2.5
Cc1ccc(S(=O)(=O)c2ccc(Cl)cc2)cc1S(=O)(=O)NCCCn1ccnc1	2.3
Cc1ccc(S(=O)(=O)c2ccccc2)cc1S(=O)(=O)N1CCN(CCN2CCOCC2)CC1	2.8
Cc1ccc(S(=O)(=O)c2ccccc2)cc1S(=O)(=O)NC1CCCC1	2.5

* * *

- target.or.system: SFRP-1 (Homo sapiens)
- measurement.description: Cell-based assay for in vitro measurement of SFRP-1/SARP2 antagonist activity (U2OS cells co-transfected with 16x TCF-tk-Luciferase reporter, Wnt and hSFRP-1)
- condition.notes: U2OS, read-out: Fold Induction with SFRP-1, U2OS cells, single dose 10 μM, luciferase reporter, fold induction over SFRP-1 control
property: fold induction at 10 µM

// known answers, use as guide
CC(C)c1ccc(S(=O)(=O)c2ccccc2)cc1S(=O)(=O)NC1CC(C)(C)NC(C)(C)C1	2.5
CCOC(=O)CNC(=O)N(C)CCNS(=O)(=O)c1cc(S(=O)(=O)c2ccccc2)ccc1C(F)(F)F	3.4
CN(CCNS(=O)(=O)c1cc(S(=O)(=O)c2ccccc2)ccc1C(F)(F)F)C(=O)N[C@H]1CCNC1	2.8
C[C@@H](CO)NS(=O)(=O)c1cc(S(=O)(=O)c2ccccc2)ccc1C(F)(F)F	3.1
COC(=O)C1CCC(NS(=O)(=O)c2cc(S(=O)(=O)c3ccccc3)ccc2C(C)C)CC1 (centres unmarked)	2.5

(1) O=S(=O)(N[C@H]1CCCNC1)c1cc(S(=O)(=O)c2ccccc2)ccc1C(F)(F)F
(2) COc1ccc(S(=O)(=O)c2ccccc2)cc1S(=O)(=O)NC1CCOCC1
Task: Which one would you say has the larger fold induction at 10 µM value: 1 , or 2 ? Please respond with the label that marks your chosen entry.
Output: 1
(1: 3.1, 2: 1.2)

* * *

- target.or.system: SFRP-1 (Homo sapiens, UniProt Q8N474)
- measurement.description: Cell-based assay for in vitro measurement of SFRP-1/SARP2 antagonist activity (U2OS cells co-transfected with 16x TCF-tk-Luciferase reporter, Wnt and hSFRP-1)
- condition.notes: U2OS, read-out: Fold Induction with SFRP-1, Conc 15 μM; with SFRP-1; fold induction over SFRP-1 control, single dose
property: fold induction at 15 µM

As a guide, the following entries are already answered.
Cc1ccc(S(=O)(=O)c2ccc(Br)cc2)cc1S(=O)(=O)NC1CCOCC1	1.9
CCc1ccc(S(=O)(=O)c2ccccc2)cc1S(=O)(=O)NCCCN(C)C	3.3

(1) COCCCNS(=O)(=O)c1cc(S(=O)(=O)c2ccc(F)cc2)ccc1C
(2) CC(C)c1ccc(S(=O)(=O)c2ccc(F)cc2)cc1S(=O)(=O)NCCc1c[nH]cn1
Task: Parameter metric = fold induction at 15 µM. Return the lower-valued option from 1 and 2 . // output: label of the selected item
Output: 1

* * *

- target.or.system: SFRP-1 (Homo sapiens, UniProt Q8N474)
- Sequence (Q8N474 32-314): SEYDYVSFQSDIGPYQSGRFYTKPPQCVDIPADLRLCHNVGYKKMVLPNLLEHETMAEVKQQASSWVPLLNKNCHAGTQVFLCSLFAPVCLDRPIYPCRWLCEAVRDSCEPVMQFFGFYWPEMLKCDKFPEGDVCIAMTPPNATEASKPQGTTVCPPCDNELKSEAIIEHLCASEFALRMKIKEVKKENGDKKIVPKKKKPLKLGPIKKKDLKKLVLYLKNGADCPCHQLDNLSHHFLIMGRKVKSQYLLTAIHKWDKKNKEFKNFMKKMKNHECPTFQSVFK
- measurement.description: Cell-based assay for in vitro measurement of SFRP-1/SARP2 antagonist activity (U2OS cells co-transfected with 16x TCF-tk-Luciferase reporter, Wnt and hSFRP-1);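 further: U2OS cells co-transfected with a TCF-tk luciferase reporter, a Wnt vector, hSFRP-1 or empty vector and CMV-βgal, luciferase luminescence read in cell lysates alongside βgal activity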
- condition.notes: U2OS, read-out: Fold Induction with SFRP-1, Conc 15 μM; single dose; luciferase reporter, fold induction over SFRP-1 control; cells with SFRP-1
property: fold induction at 15 µM

(I) CCOC(=O)N1CCC(NS(=O)(=O)c2cc(S(=O)(=O)c3ccc(F)cc3)ccc2C(C)C)CC1
(II) CC(C)c1cc(C(C)C)c(S(=O)(=O)c2ccccc2)cc1S(=O)(=O)NC1CCCC1
Task: Between I and II , whose recorded fold induction at 15 µM is greater? Kindly give the label for the entry you pick.
Output: I
